B1: POU domain, class 3, transcription factor 3, residues 320 to 388; numbered along this chain, P20264 (parent)
chain: DDLEQFAKQFKQRRIKLGFTQADVGLALGTLYGNVFSQTTICRFEALQLSFKNMCKLKPLLNKWLEEAD

Variants of: B1
Experiment: abundance fitness (aPCA) (normalised: wild type 0, dead -1); higher = more abundant; growth selection in yeast, the domain comes from the species named
Settings: Homo sapiens

variant_label	abundance fitness
G29K	-0.01
T30A	0.063
G29T	-0.004
T39Q	-0.077
G33A	-0.382
N34R	-0.051
V24K	-0.899
N34I	-0.235
A27L	-0.456
A27H	-0.022
V24W	-1.05
G33P	-0.204
L28A	-0.639
A27W	-0.101
F44R	-0.946
